# Tested on: HS 578T breast
# protocol.text: NCI tumour cell line growth inhibition, 48 h; in the data active = GI50 below about 0.43 µM; inactive = the rest
Return exactly one item of TRUE = active, FALSE = inactive

# count of solved cases: 3
query.smiles: CC(=O)c1cc(-c2ccccc2N)n(-c2ccc3c(c2)OCO3)c1C
label.value: TRUE
//
query.smiles: CC1(C)[C@@H](OC(N)=O)C=C[C@]2(CO)[C@H]3CC[C@]4(C)[C@@H](c5ccc(=O)oc5)[C@@H](Cl)C[C@]4(O)C3=CC[C@@H]12
label.value: TRUE
//
query.smiles: CCOC(=O)Nc1nc2cc(OCC)ccc2s1
label.value: FALSE

With those in mind, consider the next compound.
GET /call?item= COC(=O)[C@H]1[C@H]2C[C@@H]3c4[nH]c5cc(OC)ccc5c4CCN3C[C@H]2C[C@@H](OC(=O)/C=C/c2cc(OC)c(OC)c(OC)c2)[C@@H]1OC returns the recorded outcome of this test.
FALSE
